The reported measurements were obtained from patent US20240209076A1.

Biological target: T1, human IL-6 (human, UniProt P05231 30-212)
T1 construct: IL-6 flowed over captured antibodies
T1 sequence (P05231 30-212 limits assumed): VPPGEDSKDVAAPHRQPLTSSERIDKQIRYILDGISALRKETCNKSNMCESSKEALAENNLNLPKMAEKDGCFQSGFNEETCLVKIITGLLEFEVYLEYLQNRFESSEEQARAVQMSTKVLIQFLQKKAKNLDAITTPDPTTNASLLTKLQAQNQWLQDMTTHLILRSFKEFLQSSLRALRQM
Assay: SPR Biacore, supernatant Ab on Protein A chip, 37 C
Here the recorded koff is given for each entry.
Response body: numeric value in s⁻¹, unit text excluded.

Quick check: koff of anti-IL-6 antibody, heavy chain S35E, G66D / light chain M32L, M50D, N52S, M88Q (antibody, IgG1, V domains shown, Full IgG1 (Expi293); VL = variant III) VH: EVQLVESGGGLVQPGGSLRLSCAASGFTFSPFAMEWVRQAPGKGLEWVAKISPGGSWTYYSDTVTDRFTFSLDTSKSTAYLQMNSLRAEDTAVYYCARQLWGYYALDIWGQGTLVTVSS VL: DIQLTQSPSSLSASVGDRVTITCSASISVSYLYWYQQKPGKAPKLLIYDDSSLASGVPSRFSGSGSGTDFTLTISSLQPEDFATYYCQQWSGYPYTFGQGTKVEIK ?
0.00189

Quick check: koff of anti-IL-6 antibody, heavy chain S35A, G66D / light chain M32L, M50D, N52S, M88Q (antibody, IgG1, V domains shown, Full IgG1 (Expi293); VL = variant III) VH: EVQLVESGGGLVQPGGSLRLSCAASGFTFSPFAMAWVRQAPGKGLEWVAKISPGGSWTYYSDTVTDRFTFSLDTSKSTAYLQMNSLRAEDTAVYYCARQLWGYYALDIWGQGTLVTVSS VL: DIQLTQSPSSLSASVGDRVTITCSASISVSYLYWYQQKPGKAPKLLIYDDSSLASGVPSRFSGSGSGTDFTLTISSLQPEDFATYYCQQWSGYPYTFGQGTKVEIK ?
0.00126

Quick check: koff of anti-IL-6 antibody, heavy chain S35V, G66D / light chain M32L, M50D, N52S, M88Q (antibody, IgG1, V domains shown, Full IgG1 (Expi293); VL = variant III) VH: EVQLVESGGGLVQPGGSLRLSCAASGFTFSPFAMVWVRQAPGKGLEWVAKISPGGSWTYYSDTVTDRFTFSLDTSKSTAYLQMNSLRAEDTAVYYCARQLWGYYALDIWGQGTLVTVSS VL: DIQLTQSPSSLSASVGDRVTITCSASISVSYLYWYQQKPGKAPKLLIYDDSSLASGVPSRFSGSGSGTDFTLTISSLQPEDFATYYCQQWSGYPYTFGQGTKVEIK ?
0.00137
